Measured CC50 at 48 h, listed per entry for reference.
# Test description: Macrophage viability and cytotoxicity (Trypan Blue)
# Run conditions: female, BALB/c, mouse, peritoneal macrophages
Observable: CC50 at 48 h (µM)

1. O=c1[nH]cnc2c(CNC(CO)CO)c[nH]c12: 800
2. Nc1ncnc2c(C3N[C@H](CO)[C@@H](O)[C@H]3O)c[nH]c12 (some centres unmarked): 900

* * *

# Test description: in vitro
# Run conditions: female, BALB/c, mouse
Observable: CC50 at 48 h

1. O=c1[nH]cnc2c([C@@H]3N[C@H](CO)[C@@H](O)[C@H]3O)c[nH]c12 [IH]: 950 µM

* * *

# System: L. (L.) infantum chagasi promastigotes
# Test description: In vitro growth of promastigotes in FBS supplemented Schneider's insect medium
# Format: cell-based, Leishmania (L.) infantum chagasi
# Run conditions: Leishmania infantum, single addition at 0 h, evaluated after 48 hours, 26°C; read-out: IC50 (CI 95%) on L. (L.) infantum chagasi promastigotes in vitro growth
Please assign condition not met whenever IC50 is at or above 30 µM, and condition met whenever it is below.

1) Nc1ncnc2c(CNC(CO)CO)c[nH]c12: condition not met
2) Nc1nc2c(CN3C[C@H](CO)[C@@H](O)C3)c[nH]c2c(=O)[nH]1: condition met
3) O=c1[nH]cnc2c(CNC(CO)CO)c[nH]c12: condition met
4) O=c1[nH]cnc2c(CN3C[C@H](CO)[C@@H](O)C3)c[nH]c12: condition met
5) Nc1nc2c(CNC(CO)CO)c[nH]c2c(=O)[nH]1: condition met
6) Nc1ncnc2c(CN3C[C@H](CO)[C@@H](O)C3)c[nH]c12: condition not met
7) Nc1ncnc2c(C3N[C@H](CO)[C@@H](O)[C@H]3O)c[nH]c12 (stereo partly shown): condition met

* * *

# System: L. (L.) infantum chagasi promastigotes
# Test description: In vitro growth of promastigotes in FBS supplemented Schneider's insect medium
# Assay type: cell-based, Leishmania (L.) infantum chagasi
# Run conditions: Leishmania infantum; 500 μM, after 96 h of culture; read-out: percent inhibition on L. (L.) infantum chagasi promastigote growth
# Description: The strain of Leishmania (L.) infantum chagasi MHOM/BR/1974/PP75 was obtained from the Leishmania Type Culture Collection (Fundacão Oswaldo Cruz, Rio de Janeiro, RJ, Brazil) and the strain of Leishmania (L.) amazonensis (MHOM/BR/1975/Josefa) was kindly given by Professor Rosâ[…] from Universidade Federal do Rio de Janeiro. […] Promastigotes were recorded in a Neubauer chamber after 24, 48, 72 and 96 hours of incubation at 26°C. […]
Measured inhibition at 500 µM, listed per entry for reference.
Observable: inhibition at 500 µM (%)

1. Nc1ncnc2c(CNC(CO)CO)c[nH]c12 [SMIA]: 71
2. Nc1nc2c(CNC(CO)CO)c[nH]c2c(=O)[nH]1 [SMIG]: 70
3. O=c1[nH]cnc2c(CN3C[C@H](CO)[C@@H](O)C3)c[nH]c12 [DIH]: 89
4. Nc1ncnc2c(CN3C[C@H](CO)[C@@H](O)C3)c[nH]c12 [DIA]: 69
5. Nc1nc2c(CN3C[C@H](CO)[C@@H](O)C3)c[nH]c2c(=O)[nH]1 [DIG]: 68
6. Nc1ncnc2c(C3N[C@H](CO)[C@@H](O)[C@H]3O)c[nH]c12 (stereo partly drawn) [IA]: 78

* * *

# Assay system: Nucleoside hydrolase NH36 (Leishmania donovani, UniProt Q8WQX2)
# Sequence (Q8WQX2 1-314): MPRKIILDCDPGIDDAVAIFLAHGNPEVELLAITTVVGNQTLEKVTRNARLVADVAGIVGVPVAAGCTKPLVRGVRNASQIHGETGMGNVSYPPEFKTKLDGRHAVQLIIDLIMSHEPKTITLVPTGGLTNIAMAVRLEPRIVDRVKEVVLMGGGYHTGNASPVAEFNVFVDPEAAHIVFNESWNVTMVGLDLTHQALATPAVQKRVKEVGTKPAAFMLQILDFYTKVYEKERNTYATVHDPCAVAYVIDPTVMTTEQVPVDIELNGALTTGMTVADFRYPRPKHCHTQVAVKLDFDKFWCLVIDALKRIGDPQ
pKi: −log10 of the molar value.
Observable: pKi

1. Nc1ncnc2c(C3N[C@H](CO)[C@@H](O)[C@H]3O)c[nH]c12 (some centres unmarked): 7.10
2. Nc1nc2c(CNC(CO)CO)c[nH]c2c(=O)[nH]1: 5.74
3. O=c1[nH]cnc2c([C@@H]3N[C@H](CO)[C@@H](O)[C@H]3O)c[nH]c12: 7.72
